Provenance of the data: patent US20240132622A1

Field: IC50 (average), PAD4 citrullination of peptide …, RapidFire MS. Provide a value for each of the binders that follow.
biological target: recombinant human PAD4 (human, UniProt Q9UM07 1-663); experiment: cell-based or functional assay
Sequence (Q9UM07 whole entry): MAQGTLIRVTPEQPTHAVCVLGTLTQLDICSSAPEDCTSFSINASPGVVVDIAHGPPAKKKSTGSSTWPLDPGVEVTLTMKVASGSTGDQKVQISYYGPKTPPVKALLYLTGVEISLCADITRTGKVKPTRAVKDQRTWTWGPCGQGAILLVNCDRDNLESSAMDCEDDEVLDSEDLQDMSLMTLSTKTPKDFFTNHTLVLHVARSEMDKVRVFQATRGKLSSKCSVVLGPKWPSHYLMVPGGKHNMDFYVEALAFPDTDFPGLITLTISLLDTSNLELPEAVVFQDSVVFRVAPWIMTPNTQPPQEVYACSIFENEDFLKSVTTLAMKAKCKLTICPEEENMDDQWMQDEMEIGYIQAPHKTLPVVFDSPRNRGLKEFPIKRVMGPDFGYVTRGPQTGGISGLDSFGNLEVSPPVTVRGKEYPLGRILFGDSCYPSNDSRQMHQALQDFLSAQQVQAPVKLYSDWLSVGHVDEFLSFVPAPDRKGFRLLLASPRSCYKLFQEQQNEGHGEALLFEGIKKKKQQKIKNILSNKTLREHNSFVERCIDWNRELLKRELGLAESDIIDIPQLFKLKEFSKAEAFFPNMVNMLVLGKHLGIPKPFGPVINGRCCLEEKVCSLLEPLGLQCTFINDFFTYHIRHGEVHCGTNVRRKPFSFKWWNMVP
Answers are plain numbers, in nM.

Examples with their reported IC50 (average), PAD4 citrullination of peptide …, RapidFire MS follow.
INSERT INTO results (binder, units_of_measure, result_value) VALUES
  ('hz13-6 (antibody, V domains shown, light constant region not tied to this antibody) VH: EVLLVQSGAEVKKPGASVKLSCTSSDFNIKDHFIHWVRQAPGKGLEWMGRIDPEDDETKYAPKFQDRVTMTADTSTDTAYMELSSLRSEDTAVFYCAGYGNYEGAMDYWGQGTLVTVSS VL: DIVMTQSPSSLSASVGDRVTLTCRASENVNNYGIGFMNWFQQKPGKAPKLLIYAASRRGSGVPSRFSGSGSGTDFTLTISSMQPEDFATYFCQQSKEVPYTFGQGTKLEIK', 'nM', 39.1),
  ('hz13-2 (antibody, V domains shown, light constant region not tied to this antibody) VH: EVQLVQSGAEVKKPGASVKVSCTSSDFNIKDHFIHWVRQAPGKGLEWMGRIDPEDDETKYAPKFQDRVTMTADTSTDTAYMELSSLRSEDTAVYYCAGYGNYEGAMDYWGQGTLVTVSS VL: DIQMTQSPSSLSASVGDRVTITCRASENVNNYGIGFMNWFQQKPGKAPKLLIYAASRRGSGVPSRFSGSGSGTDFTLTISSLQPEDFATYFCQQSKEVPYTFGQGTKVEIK', 'nM', 96.4);

Turning now to a further record.
Data request: Please give measured IC50 (average), PAD4 citrullination of peptide …, RapidFire MS of the following entry: hz13-10 (antibody, V domains shown, light constant region not tied to this antibody) VH: EVQLVQSGAEVKKPGATVKISCKVSDFNIKDHFIHWVQQAPGKGLEWMGRIDPEDDETKYAPKFQDRVTITADTSTDTAYMELSSLRSEDTAVYYCAGYGNYEGAMDYWGQGTTVTVSS VL: DVVMTQSPLSLPVTLGQPASISCRASENVNNYGIGFMNWFQQRPGQSPRLLIYAASRRGSGVPDRFSGSGSGTDFTLKISRVEEEDVGVYYCQQSKEVPYTFGGGTKVEIK
Data returned: 55.8
